Molecular target: huLTBP3 proTGFβ1 (Homo sapiens, UniProt P01137+Q9NS15)
Sequence (P01137 30-390): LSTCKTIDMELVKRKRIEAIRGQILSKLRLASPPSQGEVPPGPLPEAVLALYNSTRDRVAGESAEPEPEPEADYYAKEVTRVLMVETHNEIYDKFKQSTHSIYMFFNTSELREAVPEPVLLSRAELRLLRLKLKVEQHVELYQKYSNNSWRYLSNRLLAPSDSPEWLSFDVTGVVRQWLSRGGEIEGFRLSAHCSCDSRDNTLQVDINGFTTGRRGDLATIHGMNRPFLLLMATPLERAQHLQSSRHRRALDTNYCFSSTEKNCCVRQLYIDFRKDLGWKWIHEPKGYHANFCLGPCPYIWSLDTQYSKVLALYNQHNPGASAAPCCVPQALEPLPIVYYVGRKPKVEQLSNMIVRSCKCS
Sequence (Q9NS15 44-1303): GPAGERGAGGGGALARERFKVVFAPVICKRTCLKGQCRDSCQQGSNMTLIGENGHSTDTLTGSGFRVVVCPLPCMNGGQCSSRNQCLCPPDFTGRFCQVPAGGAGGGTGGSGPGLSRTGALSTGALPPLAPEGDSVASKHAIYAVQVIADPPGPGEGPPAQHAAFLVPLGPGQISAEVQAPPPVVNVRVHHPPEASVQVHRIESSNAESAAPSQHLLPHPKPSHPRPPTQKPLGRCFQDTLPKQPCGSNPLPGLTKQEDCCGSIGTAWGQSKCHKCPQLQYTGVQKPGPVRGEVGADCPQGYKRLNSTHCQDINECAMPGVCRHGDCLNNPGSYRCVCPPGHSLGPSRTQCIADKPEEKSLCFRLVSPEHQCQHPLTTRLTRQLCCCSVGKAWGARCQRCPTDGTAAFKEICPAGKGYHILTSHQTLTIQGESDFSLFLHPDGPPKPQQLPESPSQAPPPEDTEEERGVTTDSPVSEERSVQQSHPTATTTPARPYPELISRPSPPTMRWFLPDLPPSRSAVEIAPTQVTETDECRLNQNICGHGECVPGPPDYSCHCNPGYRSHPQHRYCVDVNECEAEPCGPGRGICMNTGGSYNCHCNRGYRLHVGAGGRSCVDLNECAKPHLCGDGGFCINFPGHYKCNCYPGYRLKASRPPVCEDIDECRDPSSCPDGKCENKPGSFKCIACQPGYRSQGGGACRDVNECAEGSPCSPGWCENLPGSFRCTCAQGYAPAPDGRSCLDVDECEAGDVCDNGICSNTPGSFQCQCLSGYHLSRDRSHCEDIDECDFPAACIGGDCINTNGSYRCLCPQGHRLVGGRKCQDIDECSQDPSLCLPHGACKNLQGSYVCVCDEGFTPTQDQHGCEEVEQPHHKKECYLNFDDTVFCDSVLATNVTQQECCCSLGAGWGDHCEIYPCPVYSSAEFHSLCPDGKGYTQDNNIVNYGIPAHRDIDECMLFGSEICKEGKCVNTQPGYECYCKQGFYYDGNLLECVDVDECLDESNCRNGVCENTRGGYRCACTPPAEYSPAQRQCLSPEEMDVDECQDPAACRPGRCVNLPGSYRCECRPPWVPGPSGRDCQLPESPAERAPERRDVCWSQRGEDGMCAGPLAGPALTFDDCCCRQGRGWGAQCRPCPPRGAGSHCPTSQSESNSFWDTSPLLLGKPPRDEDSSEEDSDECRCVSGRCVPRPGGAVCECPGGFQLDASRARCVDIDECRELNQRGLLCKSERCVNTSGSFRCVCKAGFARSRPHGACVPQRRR
Experiment: Octet (BLI) binding, IgG captured on AHC tips, antigen at 100 nM
Conditions: Table 9; cycle 3; IgG1-agly; 5-minute dissociation
quantity measured: Hu LTBP3-proTGFβ1 Koff (s⁻¹)
Give the value in s⁻¹ but do not write s⁻¹ after it.

Consider the reported Hu LTBP3-proTGFβ1 Koff for these molecules:
{"molecule": "SR-AB38: cycle 3 light chain-optimized antibody, lineage SR-AB22; CDRs SEQ ID NO: 142-147 (antibody, V domains shown) VH: QVQLVESGGGVVQPGRSLRLSCAASGFTFRSYVMHWVRQAPGKGLEWVAVISHEGSLKYYADSVKGRFTISRDNSKNTLYLQMNSLRAEDTAVYYCAVPRIAARRGGFGYWGQGTLVTVSS VL: NFMLTQPHSVSESPGKTVTISCTRSSGSIDNNYVQWYQQRPGSSPTTVIYEDFIRPSGVPDRFSGSIDSSSNSASLTISGLKTEDEADYYCQSYDDDLQGVVFGGGTKLTVL", "Hu LTBP3-proTGFβ1 Koff [s⁻¹]": "7.26e-05"}
{"molecule": "SR-AB62: cycle 3 light chain-optimized antibody, lineage SR-AB24; CDRs SEQ ID NO: 286-291 (antibody, V domains shown) VH: QLQLQESGPGLAKPSETLSLTCTVSGGSIRSSSYYWGWIRQPPGKGLEWIGSISYSATTYYNPSLKSRVTISVDTSKNQFSLKLSSVTAADTAVYYCASDPSYDSAAGMDVWGQGTTVTVSS VL: DIQMTQSPSSLSASVGDRVTITCRASKVISSYLNWYQQKPGKAPKLLIYYASSLQSGVPSRFSGSGSGTDFTLTISSLQPEDFATYYCQQSNDWPFTFGGGTKVEIK", "Hu LTBP3-proTGFβ1 Koff [s⁻¹]": "7.47e-05"}
{"molecule": "SR-AB63: cycle 3 antibody, lineage SR-AB26; CDRs SEQ ID NO: 292-297; HCVR SEQ ID NO: 360, LCVR SEQ ID NO: 361 (antibody, V domains shown) VH: QLQLQESGPGLVKPSETLSLTCTVSGGSIRSSSYYWGWIRQPPGKGLEWIGSISYSATTYYNPSLKSRVTISVDTSKNQFSLKLSSVTAADTAVYYCAGDPSYDSIAGMQVWGQGTTVTVSS VL: DIQLTQSPSSLSASVGDRVTITCRASQSISSYLNWYQQKPGKAPKLLIYAASNLQSGVPSRFSGSGSGTDFTLTISSLQPEDFATYYCQQSFDWPLTFGGGTKVEIK", "Hu LTBP3-proTGFβ1 Koff [s⁻¹]": "7.84e-05"}
{"molecule": "SR-AB39: cycle 3 light chain-optimized antibody, lineage SR-AB22; CDRs SEQ ID NO: 148-153 (antibody, V domains shown) VH: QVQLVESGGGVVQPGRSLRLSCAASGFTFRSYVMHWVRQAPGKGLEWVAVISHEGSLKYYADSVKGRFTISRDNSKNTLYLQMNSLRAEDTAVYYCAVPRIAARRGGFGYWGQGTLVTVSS VL: NFMLTQPHSVSESPGKTVTISCTRSSGLIDDNYVQWYQQRPGSSPTTVIYEDAQRPSGVPDRFSGSIDSSSNSASLTISGLKTEDEADYYCQSYDHDEQGVVFGGGTKLTVL", "Hu LTBP3-proTGFβ1 Koff [s⁻¹]": "6e-05"}
{"molecule": "SR-AB31: cycle 3 light chain-optimized antibody, lineage SR-AB22; CDRs SEQ ID NO: 124-129 (antibody, V domains shown) VH: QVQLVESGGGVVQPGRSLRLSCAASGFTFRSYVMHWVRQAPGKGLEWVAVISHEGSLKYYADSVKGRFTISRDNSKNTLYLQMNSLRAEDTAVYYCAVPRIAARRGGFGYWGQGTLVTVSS VL: NFMLTQPHSVSESPGKTVTISCTRSSGNIDNNYVQWYQQRPGSSPTTVIYEDNQRPSGVPDRFSGSIDSSSNSASLTISGLKTEDEADYYCQSYDFNNQGVVFGGGTKLTVL", "Hu LTBP3-proTGFβ1 Koff [s⁻¹]": "6.81e-05"}

Exam item: Indicate the recorded Hu LTBP3-proTGFβ1 Koff value for this molecule: SR-AB64: cycle 3 light chain-optimized antibody, lineage SR-AB26; CDRs SEQ ID NO: 298-303 (antibody, V domains shown) VH: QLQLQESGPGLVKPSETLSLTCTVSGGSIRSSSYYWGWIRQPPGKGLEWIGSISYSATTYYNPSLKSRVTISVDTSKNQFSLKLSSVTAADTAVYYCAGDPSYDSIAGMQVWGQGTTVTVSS VL: DIQMTQSPSSLSASVGDRVTITCRASQSISYYLNWYQQKPGKAPKLLIYSASSRQSGVPSRFSGSGSGTDFTLTISSLQPEDFATYYCQQGFDFPLTFGGGTKVEIK
Marked response: 9.18e-05

Exam item: Indicate the recorded Hu LTBP3-proTGFβ1 Koff value for this molecule: SR-AB37: cycle 3 light chain-optimized antibody, lineage SR-AB22; CDRs SEQ ID NO: 136-141 (antibody, V domains shown) VH: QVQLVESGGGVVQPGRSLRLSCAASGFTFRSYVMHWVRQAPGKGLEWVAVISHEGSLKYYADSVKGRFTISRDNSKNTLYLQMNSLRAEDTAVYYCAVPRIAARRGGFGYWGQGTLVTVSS VL: NFMLTQPHSVSESPGKTVTISCTRSSGLIDDNYVQWYQQRPGSSPTTVIYEDNQRPSGVPDRFSGSIDSSSNSASLTISGLKTEDEADYYCQSYDSDLQRVVFGGGTKLTVL
Marked response: 7.58e-05

Exam item: Indicate the recorded Hu LTBP3-proTGFβ1 Koff value for this molecule: SR-AB42: cycle 3 antibody, lineage SR-AB23; CDRs SEQ ID NO: 166-171; HCVR SEQ ID NO: 318, LCVR SEQ ID NO: 319 (antibody, V domains shown) VH: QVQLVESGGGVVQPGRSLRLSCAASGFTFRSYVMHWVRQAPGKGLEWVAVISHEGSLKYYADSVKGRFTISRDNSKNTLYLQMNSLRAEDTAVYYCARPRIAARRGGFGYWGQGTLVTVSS VL: NFMLTQPHSVSESPGKTVTISCTRSSGNIDNNYVQWYQQRPGSSPTTVIYEDNQRPSGVPDRFSGSIDSSSNSASLTISGLKTEDEADYYCQSYDYDTQGVVFGGGTKLTVL
Marked response: 6e-05
